- assayed-target: 3',5'-cyclic-AMP phosphodiesterase 4B (Homo sapiens)
- procedure-summary: qHTS Assay for Inhibitors of PDE-IV (AID 607)
- condition-context: HEK293 ACTOne CNG channel cells, membrane potential fluorescence; series mostly up to 22.9 µM
Inconclusive results are not listed. Calls of active or inactive are those of the source. Calls follow the shape of the dose curve; as a rule, active = well fitted activation curve with a large enough effect in the main read-out, with a control signal flat (not every such curve was filed as active); inconclusive = small, poorly fitted or top-dose-only effect, or effect the other way, or a change in a side signal; inactive = flat fitted curve, though single readings scatter.
outcome-measure: outcome

CC1=NS(=O)(=O)c2cc(Cl)ccc2N1 :: inactive
CN(C)CCOC(=O)COc1ccc(Cl)cc1 :: inactive
NC(N)=NC(=O)Cc1c(Cl)cccc1Cl :: inactive
FC(F)(F)c1ccccc1-n1ccnc1 :: inactive
CC[N+](C)(C)c1cccc(O)c1 :: inactive
CN(C)C(=O)Oc1cccc([N+](C)(C)C)c1 :: inactive

(Q) Under 3',5'-cyclic-AMP phosphodiesterase 4B (Homo sapiens): outcome value of CCN(CC)CCOCCOC(=O)C1(c2ccccc2)CCCC1 ?
(A) inactive

(Q) API: value(readout=outcome, system=3',5'-cyclic-AMP phosphodiesterase 4B (Homo sapiens)) for record CNCCCN1c2ccccc2CCc2ccccc21
(A) inactive

(Q) Param readout = outcome; param system = 3',5'-cyclic-AMP phosphodiesterase 4B (Homo sapiens); param query = O=C(O)CN(CCN(CC(=O)O)CC(=O)O)CCN(CC(=O)O)CC(=O)O ; response: value
(A) inactive

(Q) State its outcome on 3',5'-cyclic-AMP phosphodiesterase 4B (Homo sapiens): CCN(CC)CCNC(=O)c1cc(S(C)(=O)=O)ccc1OC
(A) inactive

(Q) API: value(readout=outcome, system=3',5'-cyclic-AMP phosphodiesterase 4B (Homo sapiens)) for record Cc1ccc(=O)n(-c2ccccc2)c1
(A) inactive
